# System: HOP-92 NSCLC
# assay remarks: NCI-60 one-dose screen, 48 h (100 = growth as untreated, 0 = no growth, -100 = all killed)
# test parameters: 10 µM
Compounds without any hit were thinned out: in the full panel of roughly 83,000, 20% have a hit.
Values of growth greater than or equal to 70% map to 1; values below map to -1.

>  <compound>
CCCCCc1ccc(S(=O)(=O)Nc2cccc(-c3csc(NC(=O)CN4CCN(C)CC4)n3)c2)cc1

>  <group>
-1

$$$$
>  <compound>
C=CC(=O)N1CCC=C(c2cc3c(N[C@H](C)c4ccccc4)ncnc3[nH]2)C1

>  <group>
-1

$$$$
>  <compound>
Cc1ccc(-c2cc3nc(C(Cl)Cl)nc(-c4ccco4)n3n2)cc1

>  <group>
-1

$$$$
>  <compound>
CCN(CC)c1ccc2c(c1)Oc1nc(N)c(C#N)c(N)c1C2Sc1ccc(F)cc1 (centres undefined)

>  <group>
-1

$$$$
>  <compound>
c1ccc(C(c2nc3ncncc3[nH]2)N2CSc3nc4ccccc4n3C2)cc1 (centres undefined)

>  <group>
1

$$$$
>  <compound>
C/C(=N\O)[C@H]1C[C@]23CC[C@]4(C)[C@H](CC[C@@H]5[C@@]6(C)CC/C(=N/O)C(C)(C)[C@@H]6CC[C@]54C)[C@H]2[C@H](C)C1(C)OC3

>  <group>
1

$$$$
>  <compound>
O=C(Nc1ccc2c(ccn2Cc2ccccn2)c1)c1cnccn1

>  <group>
1

$$$$
>  <compound>
C[C@H]1c2[nH]c3ccccc3c2C[C@H]2C(=O)N(CCCCCCC(=O)NO)CC(=O)N21

>  <group>
-1

$$$$
>  <compound>
COc1cc(C2N=C(NNc3ccccc3)NC(C)=C2C(C)=O)ccc1O (centres undefined)

>  <group>
1

$$$$
>  <compound>
CS(=O)(=O)Nc1cc(-c2ccc3ncc(C#N)c(N[C@H](CO)c4ccccc4)c3c2)cnc1Cl

>  <group>
-1

$$$$
>  <compound>
COc1ccc(NC(=O)CSc2nnc(-c3ccc4nc(-c5ccccc5)[nH]c4c3)o2)cc1

>  <group>
1

$$$$
>  <compound>
O=C1CCCc2nc(Nc3ccc(S(=O)(=O)Nc4ccc([N+](=O)[O-])cc4)cc3)ncc21

>  <group>
1

$$$$
>  <compound>
O=C(Nc1ccc(F)c(F)c1)c1cc(-c2ccc(F)cc2F)ccc1O

>  <group>
-1

$$$$
>  <compound>
C=CCOc1cccc(/C=C2\SC(=S)N(C3CC(=O)N(c4ccc(Br)cc4)C3=O)C2=O)c1 (centres undefined)

>  <group>
1

$$$$
>  <compound>
CC(=O)O[C@@H]1C(=O)N(c2cnccn2)[C@H]1c1ccccc1[N+](=O)[O-]

>  <group>
-1

$$$$
>  <compound>
CCn1c(SCC(=O)Nc2cccc(C(=O)/C=C/c3ccccc3Cl)c2)nc2ccccc2c1=O

>  <group>
1

$$$$
>  <compound>
COc1ccc(-c2nc3ccc(-c4nnc(SCC(=O)Nc5ccc(C(=O)/C=C/c6ccc(Cl)cc6)cc5)o4)cc3[nH]2)cc1

>  <group>
1

$$$$
>  <compound>
CCC(CC)N1C(=O)/C(=c2\sc3n(c2=O)NC2C(N=3)N(CC)C(=O)N2CC)c2ccccc21 (centres undefined)

>  <group>
1

$$$$
>  <compound>
O=C(O)c1ccc(-n2cc(CNc3cc(F)c(F)c(F)c3)c(-c3ccc(F)cc3)n2)cc1

>  <group>
1

$$$$
>  <compound>
C=C(C=O)[C@@H]1CC[C@]2(C)[C@H](CC=C3[C@H]4[C@@H](C)[C@H](C)CC[C@]4(C(=O)OC)CC[C@]32C)[C@@]1(C)CCC#N

>  <group>
-1

$$$$
>  <compound>
COc1ccc(/C=C(/C)c2ccc3ccc(OC)cc3[o+]2)c(O)c1

>  <group>
-1

$$$$
>  <compound>
CCn1c(SCC(=O)Nc2cccc(C(=O)/C=C/c3cc(OC)c(OC)c(OC)c3)c2)nc2ccccc2c1=O

>  <group>
-1

$$$$
>  <compound>
CN1CCN(Cc2ccc(NC(=O)c3cncc(C#Cc4cnc5ccc(N6CCN(C)CC6)nn45)c3)cc2C(F)(F)F)CC1

>  <group>
-1

$$$$
>  <compound>
O=C1[C@@H]2Cc3c([nH]c4ccccc34)[C@H](c3c(Cl)cccc3Cl)N2C(=O)CN1C1CCN(CC2CCCCC2)CC1

>  <group>
-1

$$$$

---

In this section we review reported growth values for a set of compounds.
# Tested on: MOLT-4 leukemia
# assay remarks: NCI-60 one-dose screen, 48 h (100 = growth as untreated, 0 = no growth, -100 = all killed)
# test parameters: 10 µM unless noted
About 83,000 compounds went through this panel and 20% of them were active in at least one assay; those are over-represented in the sample as a whole. Activity calls are given as the source filed them. Rule for the calls: active = growth percent below 10; inactive = the rest.
property: growth

>  <compound>
CCc1cccc2c3c(sc12)C(c1ccc(OC)cc1)C(C#N)=C(/N=C/c1ccc(Cl)cc1)O3 (stereo not given)

>  <experimental result>
22.5% (inactive)

$$$$
>  <compound>
CCCCCCCn1cc2c(N[C@H](C)c3ccccc3)ncnc2n1

>  <experimental result>
102% (inactive)

$$$$
>  <compound>
Cc1ccc(-c2nn(-c3ccccc3)cc2/C=C/C(=O)c2ccc(NC(=O)CCCCCCC(=O)NO)cc2)cc1

>  <experimental result>
38.5% (inactive)

$$$$
>  <compound>
C/C(=N\O)[C@H]1C[C@]23CC[C@]4(C)[C@H](CC[C@@H]5[C@@]6(C)CC/C(=N/O)C(C)(C)[C@@H]6CC[C@]54C)[C@H]2[C@H](C)C1(C)OC3

>  <experimental result>
98.7% (inactive)

$$$$
>  <compound>
CN(C)CCNC(=O)c1ccc(-c2nc3ccc4[nH]ncc4c3c3c2COCC3)cc1

>  <experimental result>
-9.13% (active)

$$$$
>  <compound>
CCn1c(SCC(=O)Nc2cccc(C(=O)/C=C/c3ccc(Br)cc3)c2)nc2ccccc2c1=O

>  <experimental result>
98.3% (inactive)

$$$$
>  <compound>
C#CC(=O)N(c1ccc(OC)cc1OC)C(C(=O)NCC(=O)OCC)c1cccs1 (stereo not given)

>  <experimental result>
-22.2% (active)

$$$$
>  <compound>
COc1ccc(/C=N/NC2=NC3C(S2)N(C)C(=O)N3C)cc1 (stereo not given)

>  <experimental result>
20.3% (inactive)

$$$$
>  <compound>
Cc1ccc(-n2c(/C=C3\C(=O)Nc4ccccc43)ccc2CO)cc1

>  <experimental result>
43.8% (inactive)

$$$$
>  <compound>
Nc1nc(-c2cccc([N+](=O)[O-])c2)c(N=Nc2ccccc2)s1

>  <experimental result>
50.8% (inactive)

$$$$
>  <compound>
COc1ccc(/C=C(/C)c2ccc3ccc(OC)cc3[o+]2)c(O)c1

>  <experimental result>
34.7% (inactive)

$$$$
>  <compound>
COc1cc(-c2nc3sccn3c2-c2ccnc(S(C)(=O)=O)n2)ccc1F

>  <experimental result>
83.5% (inactive)

$$$$
>  <compound>
O=C(CSc1nnc(-c2ccc(Cl)cc2)n1-c1ccccc1)Nc1cccc(Cl)c1

>  <experimental result>
85.6% (inactive)

$$$$
>  <compound>
CNC(=O)c1cc(Oc2ccc3nc(NC(=O)c4cc(N5CCOCC5)cc(C(F)(F)F)c4)sc3c2)ccn1

>  <experimental result>
65.5% (inactive)

$$$$
>  <compound>
O=S(=O)(NCCNc1nccc(-n2cnc3ccccc32)n1)c1ccc(Br)cc1

>  <experimental result>
95.9% (inactive)

$$$$

---

# Tested on: SNB-19 CNS
# assay remarks: NCI-60 one-dose screen, 48 h
# test parameters: 10 µM unless noted
The panel holds about 83,000 compounds, 20% with a hit somewhere; the sample as a whole holds those more often. Calls of active or inactive are those of the source. Rule for the calls: active = growth percent below 10; inactive = the rest.
Outcome codes: active, inactive

>  <compound>
C=CCn1c(-c2nc3ccc(C(=C(C#N)C#N)c4ccccc4)cc3[nH]2)cc2cc(Br)ccc21

>  <group>
inactive

$$$$
>  <compound>
O=c1[nH]c2ccccc2cc1CSc1ccccc1Nc1nccc(-c2ccc(Cl)cc2)n1

>  <group>
inactive

$$$$
>  <compound>
COc1ccccc1N1CCN(C2=CC(=O)C(C)=C(C)C2=O)CC1

>  <group>
inactive

$$$$
>  <compound>
CCCCCCCn1cc2c(NCCc3ccccc3)ncnc2n1

>  <group>
inactive

$$$$
>  <compound>
O=C(CN1CCN(c2cc(=O)n(-c3ccccc3)c3ccccc23)CC1)Nc1ccc(F)cc1

>  <group>
inactive

$$$$
>  <compound>
ClC(Cl)c1nc(-c2ccco2)n2nc(-c3ccccc3)cc2n1

>  <group>
active

$$$$
>  <compound>
Cc1cc(S(=O)(=O)N(C)C)cc(NCC(=O)NC(=O)NCC(C)C)c1C

>  <group>
inactive

$$$$
>  <compound>
CCCCCc1ccc(S(=O)(=O)Nc2cc(-c3csc(NC(=O)CN4CCN(CCO)CC4)n3)ccc2OC)cc1

>  <group>
inactive

$$$$
>  <compound>
CCO/C=N/C1=C(C#N)C(c2ccc(OC)cc2)c2sc3c(CC)cccc3c2O1 (stereo not drawn)

>  <group>
inactive

$$$$
>  <compound>
CNc1ncc2cc(-c3ccc(-c4ncccc4F)cc3Cl)c(=O)n(CC3OCC(N)CO3)c2n1 (stereo not drawn)

>  <group>
inactive

$$$$
>  <compound>
CC(C)(C)c1ccc(C(=O)Nc2nc3ccc(O)cc3s2)cc1

>  <group>
inactive

$$$$
>  <compound>
Cc1ccc2c(c1)Oc1nc(N)c(C#N)c(N)c1C2Sc1ccc(F)cc1 (stereo not drawn)

>  <group>
active

$$$$
>  <compound>
Cc1cc2ncc(-c3cc4ccccc4c(N4CCN(C)CC4)n3)nc2cc1C

>  <group>
inactive

$$$$
>  <compound>
CCn1c(SCC(=O)Nc2cccc(C(=O)/C=C/c3cc(OC)c(OC)c(OC)c3)c2)nc2ccccc2c1=O

>  <group>
inactive

$$$$
>  <compound>
COc1cc2nc(Cl)nc(Nc3cccc(C4=Nc5c(N)nc(N)nc5NC(c5ccccc5)C4)c3)c2cc1OC (stereo not drawn)

>  <group>
inactive

$$$$
>  <compound>
CCOC(=O)C(=O)CC(=O)N1C(=S)NC(=O)C1CC(C)C (stereo not drawn)

>  <group>
inactive

$$$$
>  <compound>
CC(=O)N(C)C1CCc2c(sc(NC(=O)c3ccc(C(C)(C)C)cc3)c2C(N)=O)C1 (stereo not drawn)

>  <group>
inactive

$$$$
>  <compound>
COc1cc2c(cc1OC)C(Sc1ccc(F)cc1)c1c(nc(N)c(C#N)c1N)O2 (stereo not drawn)

>  <group>
active

$$$$
>  <compound>
CN1CCN(c2ccc(/C=N/Nc3nc4ccccc4c(=O)n3-c3ccccc3)cc2)CC1

>  <group>
inactive

$$$$
>  <compound>
COc1cc(C2N=C(NNc3ccccc3)NC(C)=C2C(C)=O)ccc1O (stereo not drawn)

>  <group>
inactive

$$$$
>  <compound>
COc1cc(-c2nn(C(C)(C)C)cc2-c2ccnc(NCCCNS(=O)(=O)c3ccccc3)n2)ccc1Cl

>  <group>
inactive

$$$$
>  <compound>
COc1c(N2CC3CCCNC3C2)c(F)cc2c(=O)c(C(=O)N/N=C/c3ccccc3)cn(C3CC3)c12 (stereo not drawn)

>  <group>
inactive

$$$$
>  <compound>
O=S(=O)(Oc1ccc(-c2nnc(Nc3ccccc3)s2)cc1)C(F)(F)C(F)(F)C(F)(F)C(F)(F)C(F)(F)C(F)(F)F

>  <group>
inactive

$$$$
>  <compound>
Cc1cc(-c2ccc(Cl)cc2)n(Cc2nnc(SCC(=O)Nc3ccc(S(N)(=O)=O)cc3)n2-c2ccc([N+](=O)[O-])cc2)n1

>  <group>
inactive

$$$$
>  <compound>
CCN1CCN(Cc2ccc(C(=O)Nc3ccc(C)c(Oc4ccc(-c5[nH]nc6ncnc(N)c56)cc4)c3)cc2C(F)(F)F)CC1

>  <group>
inactive

$$$$
>  <compound>
COc1cc2nc(Cl)nc(Nc3cccc(C4=Nc5c(N)nc(N)nc5NC(c5ccc(Br)cc5)C4)c3)c2cc1OC (stereo not drawn)

>  <group>
inactive

$$$$
>  <compound>
O=C1[C@H]2Cc3c([nH]c4ccccc34)[C@@H](c3ccc(Cl)cc3)N2C(=O)CN1C1CCN(Cc2ccccc2)CC1

>  <group>
inactive

$$$$
>  <compound>
COc1cc(/C=C2\C(=O)Nc3ccccc32)ccc1OCc1ccc(Cl)cc1

>  <group>
inactive

$$$$
